# Tested on: EGI-1 cells
# ASSAY NOTES: In vitro cytotoxicity, SRB total protein assay, EGI-1
# Format: cell-based
# CONDITION DETAILS: Homo sapiens, EGI-1, 24 h
VALUE TYPE: pIC50
Field pIC50 (float): negative decimal logarithm of the concentration in molar.

pIC50 measured on COc1cc(/C=C/C(=O)CC(=O)/C=C/c2ccc(O)c(OC)c2)ccc1O [free curcumin, curcumin] = 4.66

* * *

# ASSAY NOTES: Circulation kinetics of Cy7-labeled curcumin micelles in mice
# Type: in vivo, BALB/c mice
# CONDITION DETAILS: female, BALB/c, mouse, plasma, iv, 7.8 mg/kg
VALUE TYPE: AUC(0-inf) (µg·h/mL)
Lab book: enter the figure in µg·h/mL, no units written.

Lab book: AUC(0-inf) of COc1cc(/C=C/C(=O)CC(=O)/C=C/c2ccc(O)c(OC)c2)ccc1O [free curcumin, curcumin] noted as 319

* * *

# Test system: Sk-ChA-1 cells
# ASSAY NOTES: In vitro cytotoxicity, SRB total protein assay, Sk-ChA-1
# Format: cell-based
# CONDITION DETAILS: Homo sapiens, 72 h
VALUE TYPE: pIC50
The meaning of pIC50 here: minus log10 of the concentration in molar units.

Quick note, pIC50 for COc1cc(/C=C/C(=O)CC(=O)/C=C/c2ccc(O)c(OC)c2)ccc1O [free curcumin, curcumin] landed at 4.67

* * *

# Tested on: Sk-ChA-1 cells
# ASSAY NOTES: In vitro cytotoxicity, SRB total protein assay, Sk-ChA-1
# Type: cell-based
# CONDITION DETAILS: Homo sapiens, 24 h
VALUE TYPE: IC50 (µM)
The answer is to be given in µM; state only the numeric part.

Record COc1cc(/C=C/C(=O)CC(=O)/C=C/c2ccc(O)c(OC)c2)ccc1O [free curcumin, curcumin] , field IC50: 33.9
